system: Wolbachia pipientis; test: Anti-Wolbachia Cell-Based Screen; assay type: functional; design: scale not given: in the data most compounds retested in dose-response had high values; details: 5 µM
Among all 48,000 compounds or so, about 13,000 (27%) showed an effect of 50% or more. This is one part of the list.
ENDPOINT: Percent Effect
Answer shape: numeric part, then the unit.

Q) // query Percent Effect value for entry Cc1noc(C(C)Nc2ccc3oc(C)nc3c2)n1 (stereo unspecified)
A) 8.533%

Q) Look up Percent Effect for this compound: O=C(c1cc[nH]n1)N1CCN(C(c2ccccc2)C(F)(F)F)CC1 (stereo unspecified)
A) 48.39%

Q) Which Percent Effect is listed for CCOCCC(=O)N1CC(=O)Nc2cc(Br)ccc21 ?
A) 10.79%

Q) Looking for the measured Percent Effect of O=C(c1cnccn1)N1C[C@@H]2OCC(=O)N(CC3CCCCC3)[C@@H]2C1 , can you help?
A) -4.007%

Q) Need Percent Effect of COc1cc(CN(C)C(C)c2ccccn2)cc2c1OCO2 (stereo unspecified) , thanks.
A) -21.63%

Q) Would you kindly share the measured Percent Effect for COc1ncccc1C(Cc1ccsc1)NC(=O)Cn1cccnc1=O (stereo unspecified) ?
A) 115.2%

Q) Field request: Percent Effect | item: CS(=O)(=O)NC[C@H]1OC[C@@H]2CCN(C(=O)c3cccnc3)C[C@@H]21
A) -2.955%

Q) Which Percent Effect reading was recorded for the compound CC(c1ccccn1)N(C)Cc1cccc(C(=O)Nc2nccn2C)c1 (stereo unspecified) ?
A) 66.38%

Q) Would you mind telling me what Percent Effect value was observed for Cc1cc(N2CCOCC2)ccc1NC(C)c1nc(C(C)(C)C)no1 (stereo unspecified) ?
A) 111.3%

Q) Reported Percent Effect, compound CC(C(=O)N(Cc1ccc(F)cc1)CC(F)(F)F)S(C)(=O)=O (stereo unspecified) : ____
A) 19.96%

Q) Fill in: Percent Effect of CC(=O)NC[C@@H]1C=C(C)[C@H](CC(=O)NCCN(C)C)C[C@H]1C(C)C is ___
A) 6.725%

Q) Which Percent Effect is listed for Cn1ccc(CN2CCC3(CCCN3CC3CC3)CC2)n1.O=C(O)C(F)(F)F.O=C(O)C(F)(F)F ?
A) 89.46%

Q) State the recorded Percent Effect for this entry: Cc1ccc(C(=O)N2CCN(CCCSCC#N)CC2)o1
A) -4.6%

Q) What Percent Effect value was documented for this compound, Cn1ccc(CN2CCCC23CCN(Cc2nccn2C)CC3)n1.O=C(O)C(F)(F)F.O=C(O)C(F)(F)F ?
A) 97.85%

Q) Would you kindly share the measured Percent Effect for O=C(O)c1csc(S(=O)(=O)Nc2cccc(OCC(F)(F)F)c2)c1 ?
A) 12.1%

Q) Name the recorded Percent Effect for N#CCSCCCN1CCN(C(=O)c2cccc(Cl)c2)CC1 .
A) 87.64%

Q) Sample CC(C)(C)n1cc(C#N)cc1NC(=O)CCNC(=O)c1ccco1 — what was its Percent Effect?
A) -15.76%

Q) // returns reported Percent Effect for input Cc1cnc(NC(=O)c2cccc(CN(C)Cc3ncccc3C)c2)s1
A) 0.1885%

Q) Please give the measured Percent Effect for this compound: Cc1ccc(NC2COC3(CCN(Cc4ccn(C)n4)CC3)C2)nn1.O=C(O)C(F)(F)F (stereo unspecified)
A) -6.198%

Q) GET /values?readout=Percent Effect&item= CC(C)CNC(=O)COc1cccc[n+]1[O-]
A) -1.693%

Q) For Cc1ccc(C(=O)N2CCc3ncnc(C)c3CC2)cc1F , what is its reported Percent Effect?
A) 4.805%

Q) What Percent Effect value was documented for this compound, Cc1noc(C)c1CN(C)c1nccc(C(F)(F)F)n1 ?
A) -2.519%

Q) So what does the record say about Percent Effect for Cc1cc(CNC(=O)NC(C)c2ccc(N3CCOCC3)cc2)no1 (stereo unspecified) ?
A) 1.457%

Q) # query: Percent Effect of entry COC(=O)c1cccc(CN(C)C(C)c2ccccn2)c1 (stereo unspecified)
A) 109%

Q) If you can, please state the reported Percent Effect value of Cc1cc(OCC(=O)NC(C)c2ccc(N3CCOCC3)cc2)no1 (stereo unspecified) .
A) -0.3596%

Q) Consider the compound shown here: Cn1ccc(C(=O)N2CCCN(CCCc3ccccc3)CC2)cc1=O What is its recorded Percent Effect?
A) 5.22%

Q) Please look up its Percent Effect: CNC(=O)C1CN(C(=O)c2ccncc2)CCN(S(C)(=O)=O)C1 (stereo unspecified)
A) 113%

Q) Using the record for O=C(O)C[C@@H]1CCN(C(=O)c2cccs2)C[C@@H]1CCN1CCCCC1 , report its Percent Effect.
A) -8.603%

Q) Bench note: what Percent Effect did CCS(=O)(=O)N1CCc2c(cccc2NCc2ncc[nH]2)C1 show?
A) -10.34%

Q) Look up Percent Effect: CCN1CCN(c2ccc(C(=O)NC(C)c3ccncc3)cc2)CC1 (stereo unspecified)
A) -3.258%

Q) Which Percent Effect value is on record for N#CCSCCCN1CCN(C(=O)c2ccccc2F)CC1 ?
A) 105.1%

Q) Could you tell me which Percent Effect is on file for Cc1ccc(C(=O)N2CCN(CCCSCC#N)CC2)cc1F ?
A) 105.3%

Q) Record request: Percent Effect value, item CCS(=O)(=O)N1CCc2c(nc(C3CCCN3)nc2NC)C1.Cl (stereo unspecified)
A) 89.89%

Q) So what's the measured Percent Effect for this one? CC(C)COC1CC2(CCN(Cc3nccn3C)CC2)C1.O=C(O)C(F)(F)F
A) -0.08907%

Q) Bench note: what Percent Effect did CC(CCc1ccccc1F)C(=O)NS(=O)(=O)CC1CC1 (stereo unspecified) show?
A) -8.345%

Q) Which Percent Effect reading was recorded for the compound CNC(=O)C1CN(C(=O)c2cccnc2)CCN(S(C)(=O)=O)C1 (stereo unspecified) ?
A) 102.1%

Q) // query Percent Effect value for entry CNc1nc(C2CCCN2)nc2c1CCN(S(=O)(=O)C1CCCCC1)C2.Cl (stereo unspecified)
A) 89.64%

Q) Would you kindly share the measured Percent Effect for N#CCSCCCN1CCN(C(=O)C2CCCC2)CC1 ?
A) -2.265%

Q) I am curious: what Percent Effect value has been reported for CN(CC(=O)NCc1cc2ccccc2o1)S(C)(=O)=O ?
A) 6.61%

Q) Using the record for COc1ccccc1CCNS(=O)(=O)N1CCOCC1 , report its Percent Effect.
A) 112%

Q) So what's the measured Percent Effect for this one? CCCNC(=O)C[C@@H]1CCN(C(=O)c2cccnc2)C[C@@H]1CC
A) -4.226%

Q) Need Percent Effect, item CN(C)c1cc(C(=O)N2CCN(S(C)(=O)=O)CC2)ccn1
A) -8.698%

Q) Given the compound CC(NC(=O)Cn1cccnc1=O)c1ccc(OC(F)(F)F)cc1 (stereo unspecified) , what is its reported Percent Effect?
A) 5.256%

Q) I have this compound here, CO[C@H]1COC[C@@H]1NC(=O)C1(Oc2ccc(Cl)cc2)CCNCC1 , and I need its recorded Percent Effect.
A) 6.112%

Q) Find the recorded Percent Effect belonging to Cc1ccccc1C(C(=O)NCc1nc(-c2ncccn2)no1)N(C)C (stereo unspecified) and report it.
A) -2.983%

Q) Please report the recorded Percent Effect for CCOc1ccc(OCC)c(NCc2cc(C)on2)c1 .
A) -0.4612%
